Just for reference, ChEMBL document CHEMBL4196006 is where these values come from.

- experimentalTarget: Pteridine reductase 1 (Leishmania major)
- experimentalProtocol: Inhibition of Leishmania major PTR1 at 50 uM using H2B as substrate in presence of NADPH by photometric analysis relative to control
quantityKind: inhibition (%)

Recorded inhibition of `NC(=S)N/N=C/c1ccc(-c2ccccc2)cc1` , please.
3.57

Recorded inhibition of `NC(=S)N/N=C/c1ccc(N)cc1` , please.
3.6

Recorded inhibition of `COc1cc(/C=N/NC(N)=S)cc(OC)c1OC` , please.
7.53

Recorded inhibition of `NC(=S)N/N=C/c1ccc2ncccc2c1` , please.
12.2

Recorded inhibition of `COc1cccc(OC)c1/C=N/NC(N)=S` , please.
4.04

1 = NC(=S)N/N=C/c1cccc(-c2ccccc2)c1
2 = NC(=S)N/N=C/c1ccccc1[N+](=O)[O-]
3 = CN(C)c1ccc(/C=N/N=C(/N)S)c2ccccc12
4 = NC(=S)N/N=C/c1cccc(-c2ccc3c(c2)OCO3)c1
5 = NC(=S)N/N=C/c1ccc(O)c(O)c1
Ordering criterion: inhibition; begin with the maximum. List the labels according to the requested ordering.
5, 2, 3, 1, 4
(5: 56.5%, 2: 10.6%, 3: 5.85%, 1: 3.5%, 4: 0.33%)

----------
- System: Trypanosoma brucei
- experimentalProtocol: Antitrypanosomal activity against Trypanosoma brucei Lister 427 bloodstream form at 10 uM after 72 hrs by resazurin dye-based assay relative to control
- Type: functional
quantityKind: Activity (%)
The figure you give is taken to be in %; do not add the unit.

// below: answered compounds
I'm curious: which Activity was measured for `NC(=S)N/N=C/c1ccccc1O` tested on Trypanosoma brucei?
17.83

I'm curious: which Activity was measured for `NC(=S)N/N=C/c1ccc2ncccc2c1` tested on Trypanosoma brucei?
3.83

I'm curious: which Activity was measured for `N/C(S)=N/N=C/c1ccc(Cl)c(Cl)c1` tested on Trypanosoma brucei?
37.33

I'm curious: which Activity was measured for `N/C(S)=N/N=C/c1cccc(Br)c1` tested on Trypanosoma brucei?
0.83

I'm curious: which Activity was measured for `NC(=S)N/N=C/C=C/c1ccccc1` tested on Trypanosoma brucei?
11.33

Next:
I'm curious: which Activity was measured for `COc1cccc(OC)c1/C=N/NC(N)=S` tested on Trypanosoma brucei?
8.83

I'm curious: which Activity was measured for `C/C(=N\NC(N)=S)c1ccc(N)cc1` tested on Trypanosoma brucei?
4.67

I'm curious: which Activity was measured for `NC(=S)N/N=C/c1cccc(-c2ccc3c(c2)OCO3)c1` tested on Trypanosoma brucei?
38.67

I'm curious: which Activity was measured for `NC(=S)N/N=C/c1ccccc1[N+](=O)[O-]` tested on Trypanosoma brucei?
1.5

----------
- Tested on: Trypanosoma brucei
- experimentalProtocol: Antitrypanosomal activity against Trypanosoma brucei Lister 427 bloodstream form at 30:1 methotrexate to test compound ratio after 72 hrs by resazurin dye-based assay
- Type: functional, organism-based
- protocolConditions: Lister 427, 72 h
quantityKind: EC50 (nM)
The figure you give is taken to be in nM; do not add the unit.

Recorded EC50 of `NC(=S)N/N=C/c1ccc(OCc2ccc(Cl)c(Cl)c2)cc1` , please.
110

----------
- experimentalTarget: CYP1A2 (Homo sapiens)
- Sequence (P05177 whole entry): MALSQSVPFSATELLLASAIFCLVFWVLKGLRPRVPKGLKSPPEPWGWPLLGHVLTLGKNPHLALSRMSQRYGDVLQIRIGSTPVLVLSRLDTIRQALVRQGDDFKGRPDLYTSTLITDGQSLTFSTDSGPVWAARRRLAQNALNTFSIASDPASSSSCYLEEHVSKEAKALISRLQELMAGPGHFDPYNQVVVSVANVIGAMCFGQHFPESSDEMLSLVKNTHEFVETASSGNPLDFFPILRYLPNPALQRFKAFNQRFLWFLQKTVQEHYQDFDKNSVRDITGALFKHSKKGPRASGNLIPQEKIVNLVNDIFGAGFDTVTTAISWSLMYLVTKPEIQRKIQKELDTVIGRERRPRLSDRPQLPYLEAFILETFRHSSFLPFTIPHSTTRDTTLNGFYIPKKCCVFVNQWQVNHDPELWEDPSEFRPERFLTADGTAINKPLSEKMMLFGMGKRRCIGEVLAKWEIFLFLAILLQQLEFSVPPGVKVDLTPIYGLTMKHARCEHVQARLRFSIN
- experimentalProtocol: Inhibition of human microsomal CYP1A2 expressed in baculovirus infected BTI-TN-5B1-4 cells at 10 uM incubated for 30 mins by luciferase assay relative to control
- Assay type: ADME
quantityKind: inhibition at 0.5 h, 10 µM (%)

// below: answered molecules
Recorded inhibition at 0.5 h, 10 µM of `NC(=S)N/N=C/c1ccco1` , please.
-0.31

Recorded inhibition at 0.5 h, 10 µM of `CSc1ccc(/C=N/NC(N)=S)cc1` , please.
27

Recorded inhibition at 0.5 h, 10 µM of `NC(=S)N/N=C/C=C/c1ccccc1` , please.
18.3

1 = NC(=S)N/N=C/c1ccc2ncccc2c1
2 = NC(=S)N/N=C/c1ccc(O)cc1
3 = NC(=S)N/N=C/c1ccc(N)cc1
4 = COc1cc(/C=N/NC(N)=S)ccc1O
5 = COc1ccc(/C=N/NC(N)=S)cc1OC
Ascending by inhibition at 0.5 h, 10 µM, please. List the labels according to the requested ordering.
5, 2, 3, 4, 1
(5: -9.14%, 2: -5.15%, 3: -1.56%, 4: 7.06%, 1: 25.2%)
